Reference for the values: patent US20260250381A1

Recorded Binding Signal (fold over 6E7 parental antibody), one value per entry.
- Test system: T1, human TREM2 (human) (UniProt Q9NZC2)
- T1 sequence (looked up): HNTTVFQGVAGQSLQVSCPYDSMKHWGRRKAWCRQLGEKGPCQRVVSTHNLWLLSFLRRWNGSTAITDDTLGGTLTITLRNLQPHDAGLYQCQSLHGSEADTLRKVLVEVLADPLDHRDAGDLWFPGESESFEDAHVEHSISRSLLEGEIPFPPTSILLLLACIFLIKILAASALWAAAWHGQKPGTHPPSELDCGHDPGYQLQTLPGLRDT
- Assay procedure: 1st screen, 10 nM Ab
Lab book: enter the figure in fold, no units written.

>  <Binder>
6E7 variant V77 (antibody, V domains shown) VH: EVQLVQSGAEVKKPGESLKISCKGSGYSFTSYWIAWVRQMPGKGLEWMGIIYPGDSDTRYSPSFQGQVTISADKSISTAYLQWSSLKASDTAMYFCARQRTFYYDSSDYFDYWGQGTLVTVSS VL: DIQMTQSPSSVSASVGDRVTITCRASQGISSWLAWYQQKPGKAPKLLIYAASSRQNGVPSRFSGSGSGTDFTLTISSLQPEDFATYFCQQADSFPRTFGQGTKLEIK

>  <Value unit>
fold

>  <Value reported>
1.43

$$$$
>  <Binder>
6E7 variant V17 (antibody, V domains shown) VH: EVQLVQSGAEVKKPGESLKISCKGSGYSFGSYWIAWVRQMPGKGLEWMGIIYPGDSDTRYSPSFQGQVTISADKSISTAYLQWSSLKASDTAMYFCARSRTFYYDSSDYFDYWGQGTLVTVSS VL: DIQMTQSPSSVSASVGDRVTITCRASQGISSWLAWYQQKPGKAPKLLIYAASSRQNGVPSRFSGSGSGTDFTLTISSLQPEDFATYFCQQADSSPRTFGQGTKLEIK

>  <Value unit>
fold

>  <Value reported>
5.37

$$$$

Attention now turns to another entry.
Data request: Find the recorded Binding Signal (fold over 6E7 parental antibody) belonging to 6E7 variant V53 (antibody, V domains shown) VH: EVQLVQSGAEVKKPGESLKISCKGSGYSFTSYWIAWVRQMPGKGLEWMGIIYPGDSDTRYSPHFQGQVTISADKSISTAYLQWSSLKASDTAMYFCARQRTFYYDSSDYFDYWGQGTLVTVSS VL: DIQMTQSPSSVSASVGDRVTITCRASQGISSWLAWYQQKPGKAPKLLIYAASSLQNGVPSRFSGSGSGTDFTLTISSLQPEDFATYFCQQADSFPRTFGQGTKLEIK and report it.
Data returned: 1.25
